meta.source: patent US20230158141A1

Target: T1, IL-10R2-Fc/His (UniProt Q08334 20-220, limits assumed)
T1 sequence (looked up): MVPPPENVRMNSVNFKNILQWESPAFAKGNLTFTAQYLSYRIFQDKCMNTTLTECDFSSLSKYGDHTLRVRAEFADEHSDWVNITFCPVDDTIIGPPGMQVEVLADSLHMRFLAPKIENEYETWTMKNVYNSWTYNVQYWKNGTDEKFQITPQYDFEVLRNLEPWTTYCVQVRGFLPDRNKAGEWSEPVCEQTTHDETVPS
Test: ELISA, IL-10R2-Fc/His coated
Recorded Binding recovery (>60%) values for a group of binders are listed next.
Reply with just the number (in %).

Previously resolved entries follow.
IL-10 Ala29Cys-R4-5 (ligand, human, UniProt P22301 19-178, looked up, R4-5 on Cys 29, mature) SPGQGTQSENSCTHFPGNLPNMLRDLRDCFSRVKTFFQMKDQLDNLLLKESLLEDFKGYLGCQALSEMIQFYLEEVMPQAENQDPDIKAHVNSLGENLKTLRLRLRRCHRFLPCENKSKAVEQVKNAFNKLQEKGIYKAMSEFDIFINYIEAYMTMKIRN ... 78
IL-10 Asn18Cys-R4-18 (ligand, human, UniProt P22301 19-178, looked up, R4-18 on Cys 18, mature) SPGQGTQSENSCTHFPGCLPNMLRDLRDAFSRVKTFFQMKDQLDNLLLKESLLEDFKGYLGCQALSEMIQFYLEEVMPQAENQDPDIKAHVNSLGENLKTLRLRLRRCHRFLPCENKSKAVEQVKNAFNKLQEKGIYKAMSEFDIFINYIEAYMTMKIRN ... 99.8
IL-10 His90Cys-R4-19 (ligand, human, UniProt P22301 19-178, looked up, R4-19 on Cys 90, mature) SPGQGTQSENSCTHFPGNLPNMLRDLRDAFSRVKTFFQMKDQLDNLLLKESLLEDFKGYLGCQALSEMIQFYLEEVMPQAENQDPDIKACVNSLGENLKTLRLRLRRCHRFLPCENKSKAVEQVKNAFNKLQEKGIYKAMSEFDIFINYIEAYMTMKIRN ... 79
IL-10 Leu101Cys-R4-6 (ligand, human, UniProt P22301 19-178, looked up, R4-6 on Cys 101, mature) SPGQGTQSENSCTHFPGNLPNMLRDLRDAFSRVKTFFQMKDQLDNLLLKESLLEDFKGYLGCQALSEMIQFYLEEVMPQAENQDPDIKAHVNSLGENLKTCRLRLRRCHRFLPCENKSKAVEQVKNAFNKLQEKGIYKAMSEFDIFINYIEAYMTMKIRN ... 91
IL-10 Asp86Cys-R4-11 (ligand, human, UniProt P22301 19-178, looked up, R4-11 on Cys 86, mature) SPGQGTQSENSCTHFPGNLPNMLRDLRDAFSRVKTFFQMKDQLDNLLLKESLLEDFKGYLGCQALSEMIQFYLEEVMPQAENQDPCIKAHVNSLGENLKTLRLRLRRCHRFLPCENKSKAVEQVKNAFNKLQEKGIYKAMSEFDIFINYIEAYMTMKIRN ... 81
IL-10 Leu103Cys-R4-6 (ligand, human, UniProt P22301 19-178, looked up, R4-6 on Cys 103, mature) SPGQGTQSENSCTHFPGNLPNMLRDLRDAFSRVKTFFQMKDQLDNLLLKESLLEDFKGYLGCQALSEMIQFYLEEVMPQAENQDPDIKAHVNSLGENLKTLRCRLRRCHRFLPCENKSKAVEQVKNAFNKLQEKGIYKAMSEFDIFINYIEAYMTMKIRN ... 89.4

Kindly consider the entry below.
// field: Binding recovery (>60%); key: IL-10 Arg32Cys-R4-7 (ligand, human, UniProt P22301 19-178, looked up, R4-7 on Cys 32, mature) SPGQGTQSENSCTHFPGNLPNMLRDLRDAFSCVKTFFQMKDQLDNLLLKESLLEDFKGYLGCQALSEMIQFYLEEVMPQAENQDPDIKAHVNSLGENLKTLRLRLRRCHRFLPCENKSKAVEQVKNAFNKLQEKGIYKAMSEFDIFINYIEAYMTMKIRN ; value = 89.6
